- experiment: Effective permeability of compound in PBS buffer at pH 7.4 incubated for 5 hrs by PAMPA assay
- Format: ADME
- study.conditions: read-out: Peff
Everything with Papp at 5 h lower than 1 ×10⁻⁶ cm/s is not met; everything else, including exactly 1 ×10⁻⁶ cm/s, is met.

CC[N+](C)(C)CCCOc1ccc2c(c1)CN(C(=O)c1ccc(O)c(Sc3ccc(C)c(C)c3)c1)C2.O=C([O-])C(F)(F)F    met
Cc1ccc(Sc2cc(C(=O)N3Cc4ccc(OCCCN(C)C)cc4C3)ccc2O)cc1C    met
Cc1ccc(Sc2cc(C(=O)N3Cc4ccc(OCC[N+](C)(C)C)cc4C3)ccc2O)cc1C.O=C([O-])C(F)(F)F    not met
Cn1c(=O)c2c(ncn2C)n(C)c1=O    met
Cc1ccc(Sc2cc(C(=O)N3Cc4ccc(OCCC[N+](C)(C)C)cc4C3)ccc2O)cc1C.O=C([O-])C(F)(F)F    not met

# evaluate next
Challenge: Has Cc1ccc(Sc2cc(C(=O)N3Cc4ccc(OCCC[N+](C)(C)Cc5ccccc5)cc4C3)ccc2O)cc1C.O=C([O-])C(F)(F)F a recorded Papp at 5 h greater than or equal to 1 ×10⁻⁶ cm/s?
Response given: met

Numbers sourced from ChEMBL document CHEMBL5365518.
